Source listed as patent US9346761B2.

Biological target: Full-length human PRMT1 isoform 1 (Homo sapiens, UniProt Q99873)
Construct: GST-tagged PRMT1
Sequence (Q99873 with tags, fused parts or gaps): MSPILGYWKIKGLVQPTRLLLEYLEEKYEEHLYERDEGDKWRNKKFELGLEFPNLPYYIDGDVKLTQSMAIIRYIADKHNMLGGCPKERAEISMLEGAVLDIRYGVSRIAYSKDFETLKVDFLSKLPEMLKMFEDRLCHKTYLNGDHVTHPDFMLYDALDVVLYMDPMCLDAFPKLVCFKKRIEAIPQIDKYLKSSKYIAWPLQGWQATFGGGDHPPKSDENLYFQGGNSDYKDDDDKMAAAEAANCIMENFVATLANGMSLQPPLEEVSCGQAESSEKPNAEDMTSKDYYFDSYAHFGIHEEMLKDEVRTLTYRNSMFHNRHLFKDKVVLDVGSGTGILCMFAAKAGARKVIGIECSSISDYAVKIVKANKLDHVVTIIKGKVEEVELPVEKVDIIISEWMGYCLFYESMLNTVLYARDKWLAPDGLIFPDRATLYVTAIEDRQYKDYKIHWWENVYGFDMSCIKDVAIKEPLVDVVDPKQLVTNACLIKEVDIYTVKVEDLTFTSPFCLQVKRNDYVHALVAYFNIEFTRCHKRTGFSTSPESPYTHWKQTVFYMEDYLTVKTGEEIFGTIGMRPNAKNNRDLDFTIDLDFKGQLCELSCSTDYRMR
Test: PRMT1 biochemical assay (3H-SAM Flashplate, peptide substrate)
Source text: General Materials. […] General Procedure for PRMT1 Enzyme Assays on Peptide Substrates. […] The plates were then read in a PerkinElmer TopCount plate reader to measure the quantity of ^3H-labeled peptide bound to the Flashplate surface, measured as disintegrations per minute (dpm) or alternatively, referred to as counts per minute (cpm). […]
pIC50: −log10 of the molar value.
Could you please report measured pIC50 for the items listed next?

Task: Please give measured pIC50 of the following entry: `CCn1cc(CN(C)CCNC)c(-c2ccc(F)cc2)n1`
Output: 5.52 to 6.00

Task: Please give measured pIC50 of the following entry: `CC(C)Oc1ccc(-c2nn(C)cc2CN(C)CCN)cc1`
Output: > 7.00

Task: Please give measured pIC50 of the following entry: `Cc1ccc(-c2n[nH]cc2CN(C)CCN)cc1`
Output: > 7.00

Task: Please give measured pIC50 of the following entry: `COCCn1ncc(CN(C)CCN(C)C)c1-c1ccc(F)cc1`
Output: < 5.00

Task: Please give measured pIC50 of the following entry: `COc1ccc(-c2n[nH]cc2CN(C)CCN)c(Cl)c1`
Output: > 7.00

Task: Please give measured pIC50 of the following entry: `CN(CCN)Cc1c[nH]nc1-c1ccc(Oc2ccccc2)c(C(=O)N(C)C)c1`
Output: > 7.00

Task: Please give measured pIC50 of the following entry: `CC(C)Oc1cccc(-c2n[nH]cc2CN(C)CCN)c1`
Output: 6.00 to 7.00

Task: Please give measured pIC50 of the following entry: `CN(CCN)Cc1n[nH]cc1-c1ccc(C2CC2)cc1`
Output: > 7.00

Task: Please give measured pIC50 of the following entry: `CNCCN(C)Cc1c[nH]nc1-c1cc(F)ccc1F`
Output: 6.00 to 7.00

Task: Please give measured pIC50 of the following entry: `CN(CCN)Cc1cnn(C2COC2)c1-c1ccc(F)cc1`
Output: 6.00 to 7.00

Task: Please give measured pIC50 of the following entry: `CN(CCN)Cc1c[nH]nc1-c1ccc(Oc2ccccc2)c(F)c1`
Output: > 7.00

Task: Please give measured pIC50 of the following entry: `COc1cccc(-c2n[nH]cc2CN(C)CCN)c1`
Output: 6.00 to 7.00

Task: Please give measured pIC50 of the following entry: `CNCCN(C)Cc1cnn(CC(=O)OC)c1-c1ccc(OC(C)C)cc1`
Output: 6.00 to 7.00

Task: Please give measured pIC50 of the following entry: `CNCCN(C)Cc1cnn(C(C)C)c1-c1ccc(F)cc1`
Output: 5.52 to 6.00

Task: Please give measured pIC50 of the following entry: `CN(CCN)Cc1c[nH]nc1-c1ccc(OCC(F)(F)F)cc1`
Output: > 7.00

Task: Please give measured pIC50 of the following entry: `CNCCN(C)Cc1c[nH]nc1-c1cccc(O)c1`
Output: 6.00 to 7.00

Task: Please give measured pIC50 of the following entry: `COc1cc(-c2n[nH]cc2CN(C)CCN)ccc1F`
Output: > 7.00

Task: Please give measured pIC50 of the following entry: `CN(CCN(C)C1CC1)Cc1c[nH]nc1-c1ccc(C#N)cc1`
Output: 5.52 to 6.00

###

Full-length human PRMT3 (Homo sapiens, UniProt O60678): reported pIC50 for various compounds.
Sequence (O60678 with tags, fused parts or gaps): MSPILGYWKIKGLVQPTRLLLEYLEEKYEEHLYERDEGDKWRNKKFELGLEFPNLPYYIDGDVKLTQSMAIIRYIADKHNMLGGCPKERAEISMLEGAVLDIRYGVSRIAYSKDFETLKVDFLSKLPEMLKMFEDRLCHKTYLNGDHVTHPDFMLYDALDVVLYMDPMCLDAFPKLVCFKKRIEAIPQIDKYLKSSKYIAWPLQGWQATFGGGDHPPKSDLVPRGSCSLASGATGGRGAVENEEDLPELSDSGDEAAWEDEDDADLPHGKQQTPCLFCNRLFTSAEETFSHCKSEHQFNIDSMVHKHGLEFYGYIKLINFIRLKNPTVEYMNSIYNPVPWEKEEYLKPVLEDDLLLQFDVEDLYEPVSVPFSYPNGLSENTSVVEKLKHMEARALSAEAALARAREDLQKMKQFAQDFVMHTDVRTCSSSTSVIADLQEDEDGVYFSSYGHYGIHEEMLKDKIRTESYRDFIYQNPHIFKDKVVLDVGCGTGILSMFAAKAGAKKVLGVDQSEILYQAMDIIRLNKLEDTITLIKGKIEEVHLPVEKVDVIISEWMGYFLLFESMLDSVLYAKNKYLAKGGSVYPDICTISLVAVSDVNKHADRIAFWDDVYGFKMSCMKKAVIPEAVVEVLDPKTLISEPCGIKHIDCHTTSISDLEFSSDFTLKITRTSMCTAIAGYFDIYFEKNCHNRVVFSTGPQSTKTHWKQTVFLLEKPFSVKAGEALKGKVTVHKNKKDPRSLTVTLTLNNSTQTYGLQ
pIC50: −log10 of the molar value.

Task: Please give measured pIC50 of the following entry: `COCCn1ncc(CN(C)CCN)c1-c1ccc(F)cc1`
Output: < 5.00

Task: Please give measured pIC50 of the following entry: `CNCCN(C)Cc1c[nH]nc1-c1ccccc1F`
Output: < 5.00

Task: Please give measured pIC50 of the following entry: `COCCn1cc(CN(C)CCN(C)C)c(-c2ccc(F)cc2)n1`
Output: < 5.00

Task: Please give measured pIC50 of the following entry: CNCCN(C)Cc1cn(CCC(O)CO)nc1-c1ccc(F)cc1 (stereo not shown)
Output: < 5.00

Task: Please give measured pIC50 of the following entry: `COCCOc1ccc(-c2n[nH]cc2CN(C)CCN)cc1`
Output: 5.00 to 5.52

Task: Please give measured pIC50 of the following entry: `COCCn1ncc(CN(C)CCN(C)C)c1-c1ccc(F)cc1`
Output: < 5.00

Task: Please give measured pIC50 of the following entry: `CN(CCN)Cc1c[nH]nc1-c1cc(F)cc(Cl)c1`
Output: 5.52 to 6.00

Task: Please give measured pIC50 of the following entry: `CCOc1ccc(-c2n[nH]cc2CN(C)CCN)cc1`
Output: 5.00 to 5.52

Task: Please give measured pIC50 of the following entry: `CNCCN(C)Cc1c[nH]nc1-c1ccccc1O`
Output: < 5.00

Task: Please give measured pIC50 of the following entry: `CN(CCN)Cc1c[nH]nc1-c1ccc(C(F)(F)F)cc1Cl`
Output: < 5.00

Task: Please give measured pIC50 of the following entry: CNCCN(C)Cc1cnn(CCCC(O)CO)c1-c1ccc(F)cc1 (stereo not shown)
Output: < 5.00

Task: Please give measured pIC50 of the following entry: `CC(C)Cc1ccc(-c2n[nH]cc2CN(C)CCN)cc1`
Output: 5.52 to 6.00

Task: Please give measured pIC50 of the following entry: CN(CCN)Cc1cnn(CC(O)CO)c1-c1ccc(F)cc1 (stereo not shown)
Output: < 5.00

Task: Please give measured pIC50 of the following entry: `CN(CCN)Cc1c[nH]nc1-c1ccc(F)cc1Cl`
Output: 5.00 to 5.52

Task: Please give measured pIC50 of the following entry: `CN(CCN)Cc1cn(C2COC2)nc1-c1ccc(F)cc1`
Output: 5.00 to 5.52

Task: Please give measured pIC50 of the following entry: `CN(CCN)Cc1c[nH]nc1-c1cc(C#N)ccc1Cl`
Output: < 5.00

###

test.readout: IC50

Task: Answer with IC50 of `CNCCN(C)Cc1cn(Cc2ccncc2)nc1-c1ccc(OC(C)C)cc1` measured for UniProtKB Q96LA8.
Sequence (Q96LA8 with tags, fused parts or gaps): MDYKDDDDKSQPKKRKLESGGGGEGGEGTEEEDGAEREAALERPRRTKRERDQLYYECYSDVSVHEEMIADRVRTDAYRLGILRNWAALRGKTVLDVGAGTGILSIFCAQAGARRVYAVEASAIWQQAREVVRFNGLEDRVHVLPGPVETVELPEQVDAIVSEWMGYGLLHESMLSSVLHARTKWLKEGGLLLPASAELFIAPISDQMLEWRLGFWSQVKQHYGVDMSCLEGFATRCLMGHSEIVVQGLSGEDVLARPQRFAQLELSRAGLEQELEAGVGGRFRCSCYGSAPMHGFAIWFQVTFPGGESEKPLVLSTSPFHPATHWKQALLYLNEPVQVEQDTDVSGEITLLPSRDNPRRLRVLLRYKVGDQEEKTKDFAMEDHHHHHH
Output: 101 to 1000 nM

Task: Answer with IC50 of `Cc1cc(C#N)ccc1-c1n[nH]cc1CN(C)CCN` measured for UniProtKB Q96LA8.
Output: < 100 nM

Task: Answer with IC50 of `CN(CCN)Cc1c[nH]nc1-c1cccc(Cl)c1F` measured for UniProtKB Q96LA8.
Output: < 100 nM

Task: Answer with IC50 of `CN(CCN)Cc1c[nH]nc1-c1ccc(Oc2ccccc2F)cc1` measured for UniProtKB Q96LA8.
Output: < 100 nM
